Reference source for all entries: patent US20220259593A1

System: K562 CRISPRi cells
protocol: Constant region variant library pooled growth screen, K562
Type: cell-based, human
assay.context: sgRNA constant region variants; relative to the original, un-modified constant region cr995 (= 1)
Entries annotated with measured Mean relative activity
measured.attribute: Mean relative activity

>  <molecule>
cr642 (nucleic acid, listed as DNA, chemistry not fully specified) guide: GTTTAAGAGCTAAGCTGGAAACAGCATAGCATGTTTAAATAAGGCTAGTCCGTTATCAACTTGAAAAAGTGGCACCGAGTCGGTGCT

>  <experimental.value>
1.008

$$$$
>  <molecule>
cr023 (nucleic acid, listed as DNA, chemistry not fully specified) guide: GTTTAAGGGCTAAGCTGGAAACAGCATAGCAAGTTTAAATAAGGCTAGTCCGTTATCAACTTGAAAAAGTGGCACCGAGTCGGTGCT

>  <experimental.value>
0.9917

$$$$
>  <molecule>
cr995: original, un-modified sgRNA constant region sequence (nucleic acid, listed as DNA, chemistry not fully specified) guide: GTTTAAGAGCTAAGCTGGAAACAGCATAGCAAGTTTAAATAAGGCTAGTCCGTTATCAACTTGAAAAAGTGGCACCGAGTCGGTGCT

>  <experimental.value>
1

$$$$
>  <molecule>
cr258 (nucleic acid, listed as DNA, chemistry not fully specified) guide: GTTTAAGAGCTAAGCTGGAAACAGCATAGCAAGTTTAAATAAGGCTAGACCGTTATCAACTTGAAAAAGTGGCACCGAGTCGGTGCT

>  <experimental.value>
0.9863

$$$$
>  <molecule>
cr365 (nucleic acid, listed as DNA, chemistry not fully specified) guide: GTTTAAGAGCTAAGCTGGAAACAGCATAGCAAGTTTAAATAAGGCTAGTCCGTAATCAACTTGAAAAAGTGGCACCGAGTCGGTGCT

>  <experimental.value>
1.007

$$$$
>  <molecule>
cr392 (nucleic acid, listed as DNA, chemistry not fully specified) guide: GTTTAAGAGCTAAGCTGGAAACAGCATAGCATGTTTAAATAAGGCTAGTCCGTTATCAACTTGATAAAGTGGCACCGAGTCGGTGCT

>  <experimental.value>
0.9999

$$$$
>  <molecule>
cr118 (nucleic acid, listed as DNA, chemistry not fully specified) guide: GTTTAAGAGCTAAGCTGGAAACGGCATAGCAAGTTTAAATAAGGCTAGTCCGTTATCAACTTGAAAAAGTGGCACCGAGTCGGTGCT

>  <experimental.value>
1.025

$$$$
>  <molecule>
cr037 (nucleic acid, listed as DNA, chemistry not fully specified) guide: GTTTAATCGCTAAGCTGGAAACAGCATAGCAAGTTTAAATAAGGCTAGTCCGTTATCAACTTGAAAAAGTGGCACCGAGTCGGTGCT

>  <experimental.value>
1.01

$$$$
>  <molecule>
cr956 (nucleic acid, listed as DNA, chemistry not fully specified) guide: GTTTAAGAGCTAAGCTGGAAACAGCATAGCAAGTTTAAATAAGGCAAGTCCGTTATCAACTTGAAAAAGTGGCACCGAGTCGGTGCT

>  <experimental.value>
0.9983

$$$$
>  <molecule>
cr948 (nucleic acid, listed as DNA, chemistry not fully specified) guide: GTTTAAGAGCTAAGCTGGAAACAGCATAGCAAGTTTAAATAAGGCTAGTCCGTTATCAACTTGAAAGAGTGGCACCGAGTCGGTGCT

>  <experimental.value>
1.02

$$$$
>  <molecule>
cr239 (nucleic acid, listed as DNA, chemistry not fully specified) guide: GTTTAAGAGCTAAGCTGGAAACAGCATAGCAAGTTTAAATAAGGCTAGTCCGCTATCAACTTGTAAAAGTGGCACCGAGTCGGTGCT

>  <experimental.value>
1.014

$$$$
>  <molecule>
cr801 (nucleic acid, listed as DNA, chemistry not fully specified) guide: GTTTAAGAGCTAAGCTGGAAACAGCATAGCAAGTTTAAATAAGGCTAGTCCGTTATCAGCTTGAAAAAGCGGAAGCGAGTCGCTTCT

>  <experimental.value>
1.02

$$$$
>  <molecule>
cr932 (nucleic acid, listed as DNA, chemistry not fully specified) guide: GTTTAAGAGCTAAGCTGGAAACAGCATAGTAAGTTTAAATAAGGCTAGTCCGTTATCAACTTGAAAAAGTGGCACCGAGTCGGTGCT

>  <experimental.value>
0.9947

$$$$
>  <molecule>
cr941 (nucleic acid, listed as DNA, chemistry not fully specified) guide: GTTTAAGAGCTAAGCTGGAAACAGCATAGCAAGTTTAAATAAGGCTAGTCCGTTATCAAATGGAAACATTGACACCGAGTCGGTGTT

>  <experimental.value>
1.016

$$$$
